Source listed as ChEMBL document CHEMBL3872257.

Biological target: UniProt:O42275
Sequence (O42275 whole entry): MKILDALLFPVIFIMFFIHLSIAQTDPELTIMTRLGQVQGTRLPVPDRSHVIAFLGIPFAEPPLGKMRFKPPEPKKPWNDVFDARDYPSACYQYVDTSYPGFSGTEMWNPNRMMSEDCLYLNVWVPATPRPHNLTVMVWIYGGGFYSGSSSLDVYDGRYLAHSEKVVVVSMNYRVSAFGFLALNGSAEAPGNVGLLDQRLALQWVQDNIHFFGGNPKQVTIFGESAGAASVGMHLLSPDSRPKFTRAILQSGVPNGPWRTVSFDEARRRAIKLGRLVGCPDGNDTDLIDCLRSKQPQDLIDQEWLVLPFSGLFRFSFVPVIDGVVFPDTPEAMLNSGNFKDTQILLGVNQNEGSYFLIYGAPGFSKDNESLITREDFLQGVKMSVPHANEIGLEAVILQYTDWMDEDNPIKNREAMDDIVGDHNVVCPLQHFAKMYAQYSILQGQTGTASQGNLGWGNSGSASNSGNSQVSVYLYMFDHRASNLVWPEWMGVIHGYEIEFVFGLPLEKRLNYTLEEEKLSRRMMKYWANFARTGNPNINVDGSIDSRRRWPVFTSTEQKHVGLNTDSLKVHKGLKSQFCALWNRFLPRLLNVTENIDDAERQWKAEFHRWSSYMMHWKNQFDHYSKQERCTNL
Observed Property: IC50 (nM)
Answers are plain numbers, in nM.

Solved cases (5 shown):
- Smiles Code: "CCN(Cc1ccc(/C=C2\\COc3cc(OC)c(OC)cc3C2=O)cc1O)Cc1ccccc1N(C)C"
  IC50 / nM: 18100
- Smiles Code: "COc1cc2c(cc1OC)C(=O)/C(=C/c1ccc(CN(C)Cc3ccccc3)c(O)c1)CO2"
  IC50 / nM: 1990
- Smiles Code: "COc1cc2c(cc1OC)C(=O)/C(=C/c1cccc(O)c1CN1CCOCC1)CO2"
  IC50 / nM: 85900
- Smiles Code: "CCN(Cc1ccccc1)Cc1ccc(/C=C2\\COc3cc(OC)c(OC)cc3C2=O)cc1O"
  IC50 / nM: 364
- Smiles Code: "COc1cc2c(cc1OC)C(=O)/C(=C/c1ccc(CN3CCCCC3)c(O)c1)CO2"
  IC50 / nM: 2.49

Provide each entry's IC50 from the list below.
1. CCN(CC)Cc1ccc(/C=C2\COc3cc(OC)c(OC)cc3C2=O)cc1O
2. COc1cc2c(cc1OC)C(=O)/C(=C/c1ccc(CN3CCN(C)CC3)c(O)c1)CO2

A.
6.8
6260

====

Would you mind telling me the reported inhibition of each entry?
Biological target: Amine oxidase [flavin-containing] A (Homo sapiens, UniProt P21397)
Sequence (P21397 whole entry): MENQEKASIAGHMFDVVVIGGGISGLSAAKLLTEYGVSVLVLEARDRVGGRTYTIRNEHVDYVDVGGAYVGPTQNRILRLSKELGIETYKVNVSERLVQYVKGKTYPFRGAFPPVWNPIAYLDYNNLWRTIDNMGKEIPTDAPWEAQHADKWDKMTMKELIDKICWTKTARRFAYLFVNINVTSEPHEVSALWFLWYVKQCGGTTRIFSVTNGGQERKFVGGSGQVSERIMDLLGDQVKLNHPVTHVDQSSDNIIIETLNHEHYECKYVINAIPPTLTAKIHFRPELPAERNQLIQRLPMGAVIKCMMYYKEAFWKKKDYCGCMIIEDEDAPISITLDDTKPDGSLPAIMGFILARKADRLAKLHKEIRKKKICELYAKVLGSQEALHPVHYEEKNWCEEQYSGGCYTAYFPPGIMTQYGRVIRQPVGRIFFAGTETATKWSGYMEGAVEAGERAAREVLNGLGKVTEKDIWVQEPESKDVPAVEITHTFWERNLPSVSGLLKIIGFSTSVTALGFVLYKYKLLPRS
Test: Inhibition of human recombinant MAO-A using kynuramine as substrate at 20 uM measured after 30 mins by fluorescence assay relative to control
Conditions: 0.5 h
Answers are plain numbers, in %.

Here's what some known entries look like.
- Smiles Code: "CCN(Cc1ccccc1)Cc1ccc(/C=C2\\COc3cc(OC)c(OC)cc3C2=O)cc1O"
  Observed Property: "inhibition"
  Unit Tag: "%"
  Reported Measurement: 15
- Smiles Code: "COc1ccccc1CN(C)Cc1ccc(/C=C2\\COc3cc(OC)c(OC)cc3C2=O)cc1O"
  Observed Property: "inhibition"
  Unit Tag: "%"
  Reported Measurement: 12.3

Q. Any idea what inhibition was measured for COc1cc2c(cc1OC)C(=O)/C(=C/c1ccc(CN3CCCC3)c(O)c1)CO2 ?
A. 16.4
